Molecular target: EGFR[T790M/C797S/d746-750] (Homo sapiens, UniProt P00533, C797S/DEL746-750/T790M)
Construct: purchased Carna Bio
Sequence (P00533 with tags, fused parts or gaps DEL746-750/T790M/C797S limits assumed): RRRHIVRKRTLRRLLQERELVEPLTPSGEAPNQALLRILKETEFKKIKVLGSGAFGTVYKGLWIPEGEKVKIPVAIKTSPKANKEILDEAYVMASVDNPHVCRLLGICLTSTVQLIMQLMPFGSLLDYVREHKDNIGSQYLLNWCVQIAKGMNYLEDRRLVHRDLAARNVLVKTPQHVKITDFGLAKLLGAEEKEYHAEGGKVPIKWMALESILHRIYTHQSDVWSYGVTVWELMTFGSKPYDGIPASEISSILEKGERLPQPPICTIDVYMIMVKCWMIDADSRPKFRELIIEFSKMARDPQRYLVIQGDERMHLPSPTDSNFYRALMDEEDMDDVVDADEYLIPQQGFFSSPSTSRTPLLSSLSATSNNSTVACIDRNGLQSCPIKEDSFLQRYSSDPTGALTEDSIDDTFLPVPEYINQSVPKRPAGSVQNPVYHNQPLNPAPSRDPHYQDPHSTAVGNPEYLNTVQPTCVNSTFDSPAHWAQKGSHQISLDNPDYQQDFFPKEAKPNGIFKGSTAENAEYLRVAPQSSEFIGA
Assay: Inhibition of EGFR[T790M/C797S/d746-750] biochemical enzymatic activity (HTRF)
Details: EGFR[T790M/C797S/d746-750], 1 mM ATP, 1 h at room temperature, read-out: IC50 @T790M - C797S - Del19
Experimental: Biological Example 1: Inhibition of EGFR WT and Mutant Biochemical Enzymatic Activity The inhibition potency of compounds against these enzymes was assessed using Homogenous Time Resolved Fluorescence approach (HTRF, CisBio. Cat No. 62TKOPEJ). Inhibitory effects of the compounds were determined by measuring the enzymatic activity of EGFR enzyme phosphorylates 1 μM TK Substrate-biotin in the presence of 1 mM adenosine-5′-triphosphate (ATP) and varying concentrations of the test compound. […]
measurement.kind: IC50 (µM)

I: Cc1cc2cc(n1)-c1cnn(C)c1OCCN1CC3CCC(C3)(C1)n1c(nc3ccc(N4CC[C@H](N(C)C)C4)cc31)NC2=O (single isomer, unassigned) [Example B41A]
II: Cc1cc2cc(n1)-c1cnn(C)c1OCCN1CC3CCC(CC3)(C1)n1c(nc3ccc(N4CCC5(CN(C)C5)C4)cc31)NC2=O
III: Cc1cc2cc(n1)-c1cnn(C)c1OCCN1CC3CCC(C3)(C1)n1c(nc3ccc(N4CCN(C(C)C)CC4)cc31)NC2=O (single isomer, unassigned) [Example B57B]
IV: Cc1cc2cc(n1)-c1cnn(C)c1OCCN1CC3CCC(C3)(C1)n1c(nc3ccc(N4CCN(C5CC5)CC4)cc31)NC2=O (single isomer, unassigned) [Example B55B]
V: Cc1cc2cc(n1)-c1cnn(C)c1OCCN1CC3CCC(C3)(C1)n1c(nc3ccc(N4CCN(C5CC5)CC4)cc31)NC2=O (single isomer, unassigned) [Example B55A]
Task: Take the molecules listed above and rank them by IC50; the top slot goes to the highest value. Use the labels to give the ranking in the order requested.
Output: V, I, II, III, IV

P: Cc1cc2cc(n1)-c1cnn(C)c1OCCN1CC3CCC(C3)(C1)n1c(nc3ccc(N4CCC(N5CCN(C)CC5)CC4)cc31)NC2=O (single isomer, unassigned) [Example B59A]
Q: Cc1cc2cc(n1)-c1cnn(C)c1OCCN1CC3CCC(C3)(C1)n1c(nc3ccc(N4CC[C@H](N(C)C)C4)cc31)NC2=O (single isomer, unassigned) [Example B41B]
Task: Returns: the argument ( P or Q ) having the larger IC50. Refer to your chosen entry by its label in the reply.
Output: P

1: Cc1cc2cc(n1)-c1cc(=O)n(C)cc1OCCC[C@@H](C)Cn1c(nc3ccccc31)NC2=O
2: Cc1cc2cc(n1)-c1cnn(C)c1OCCN1CC3CCC(C3)(C1)n1c(nc3ccc(N4CCC(N5CCN(C)CC5)C4)cc31)NC2=O (single isomer, unassigned) [Example B49B]
Task: Identify the item whose IC50 is the smaller number: 1 or 2 # reply format: chosen label
Output: 2
(2: 0.0035 µM, 1: 0.401 µM)

I: Cc1cc2cc(n1)-c1cnn(C)c1OCCN1CC3CCC(CC3)(C1)n1c(nc3ccc(N4CC5CN(C)CC5C4)cc31)NC2=O (stereo not shown)
II: Cc1cc2cc(n1)-c1cnn(C)c1OCCN1CC3CCC(C3)(C1)n1c(nc3ccc(N4CC5CN(C)CC5C4)cc31)NC2=O (single isomer, unassigned) [Example B43B]
Task: Thinking about recorded IC50 values, which is higher, I or II ? Mark your selection by writing its label.
Output: I
(I: 0.0054 µM, II: 0.003 µM)

I: Cc1cc2cc(n1)-c1cnn(C)c1OCCCCCn1c(nc3ccc4c(c31)CCN(C1COC1)C4)NC2=O
II: Cc1cc2cc(n1)-c1cnn(C)c1OCCN1CC3CCC(C3)(C1)n1c(nc3ccc(N4CCC(N5CCOCC5)C4)cc31)NC2=O (single isomer, unassigned) [Example B44A]
III: Cc1cc2cc(n1)-c1cnn(C)c1OCCN1CC3CCC(C3)(C1)n1c(nc3ccc(N4CC5CN(C)CC5C4)cc31)NC2=O (single isomer, unassigned) [Example B43A]
IV: Cc1cc2cc(n1)-c1cnn(C)c1OCCN1CC3CCC(C3)(C1)n1c(nc3ccc(N4CC[C@@H](N(C)C)C4)cc31)NC2=O (single isomer, unassigned) [Example B42A]
Task: Please give the order of these molecules when sorted by IC50, largest value leading. Please list the labels in the order you were asked to rank them.
Output: II, IV, III, I

P: Cc1cc2cc(n1)-c1cnn(C)c1OCCN1CC3CCC(C3)(C1)n1c(nc3ccc(N4CCC(N5CCOCC5)C4)cc31)NC2=O (single isomer, unassigned) [Example B44B]
Q: Cc1cc2cc(n1)-c1cnn(C)c1OCCN1CC3CCC(C3)(C1)n1c(nc3ccc(N4CC5CC4CN5C)cc31)NC2=O (single isomer, unassigned) [Example B53B]
Task: IC50 comparison. Which is larger, P or Q ? Please respond with the label that marks your chosen entry.
Output: P

P: Cc1cc2cc(n1)-c1cnn(C)c1OCCN1CC3CCC(C3)(C1)n1c(nc3ccc(N4CCC(N5CCN(C)CC5)C4)cc31)NC2=O (single isomer, unassigned) [Example B49A]
Q: Cc1cc2cc(n1)-c1cnn(C)c1OCCN1CC3CCC(C3)(C1)n1c(nc3ccc(N(C)CCN(C)C)cc31)NC2=O (single isomer, unassigned) [Example B47A]
Task: Between the entries labelled P and Q , which has a larger IC50 value on record? Your answer should be the label of the entry you select.
Output: Q
(Q: 1.82 µM, P: 0.289 µM)

* * *

biological target: EGFR[T790M/C797S/d746-750] (Homo sapiens, UniProt P00533, C797S/DEL746-750/T790M); construct: purchased Carna Bio; assay: Inhibition of EGFR[T790M/C797S/d746-750] biochemical enzymatic activity (HTRF); settings: EGFR T790M-C797S-Del19, 1 mM ATP, 1 h, room temperature, read-out: IC50 (nM) @T790M - C797S - Del19
measurement.kind: IC50 (nM)

Solved entries:
compound: C[C@@H]1CCCNc2c(cnn2C)-c2cc(cn(C)c2=O)C(=O)Nc2nc3ccc(N4CCN(C)CC4)cc3n2C1 [Example A57]
unit.name: nM
IC50: 65

compound: C[C@@H]1CCCOc2c(cnn2C2CC2)-c2cc(cn(C)c2=O)C(=O)Nc2nc3ccc(N4CCN(C)CC4)cc3n2C1 [Example A22]
unit.name: nM
IC50: 6.5

compound: COCCN(C)c1ccc2nc3n(c2c1)C12CCC(CN(CCOc4c(cnn4C)-c4cc(cn(C)c4=O)C(=O)N3)C1)C2 (single isomer, unassigned) [Example A90B]
unit.name: nM
IC50: 4.9

compound: Cn1ncc2c1OCCN1CC(CCC1(C)C)n1c(nc3ccc(N4CCOCC4)cc31)NC(=O)c1cc-2c(=O)n(C)c1 (stereo not drawn) [Example A12]
unit.name: nM
IC50: 105

compound: CN1CC2CC1CN2c1ccc2nc3n(c2c1)C12CCC(CN(CCOc4c(cnn4C)-c4cc(cn(C)c4=O)C(=O)N3)C1)C2 (single isomer, unassigned) [Example A105A]
unit.name: nM
IC50: 4190

compound: CN1CCC2(CCN(c3ccc4nc5n(c4c3)C34CCC(CN(CCOc6c(cnn6C)-c6cc(cn(C)c6=O)C(=O)N5)C3)C4)CC2)C1 (single isomer, unassigned) [Example A82B]
unit.name: nM
IC50: 2

compound: CN1CC2CN(c3ccc4nc5n(c4c3)C34CCC(CC3)CN(CCOc3c(cnn3C)-c3cc(cn(C)c3=O)C(=O)N5)C4)CC2C1 (stereo not drawn) [Example A126]
unit.name: nM
IC50: 8.9

compound: Cn1ncc2c1OCCN1CC3CCC(C3)(C1)n1c(nc3ccc(N4CCN(C5COC5)CC4)cc31)NC(=O)c1cc-2c(=O)n(C)c1 (single isomer, unassigned) [Example A71B]
unit.name: nM
IC50: 2.4

a: Cn1ncc2c1OCCN1CC3CCC(CC3)(C1)n1c(nc3cc(F)c(N4CCOCC4)cc31)NC(=O)c1cc-2c(=O)n(C)c1 [Example A113]
b: Cn1ncc2c1OCCN1CCCCC(C1)n1c(nc3ccccc31)NC(=O)c1cc-2c(=O)n(C)c1 (stereo not drawn) [Example A8]
Task: Which of the two items, a and b , has the greater recorded IC50? Mark your selection by writing its label.
Output: b

* * *

test system: PC-9; assay: Cell proliferation assay, PC-9 cells (CellTiter-Glo, 72 hours); assay type: cell-based; conditions: Homo sapiens, PC-9, 72 h, PC9 cells, CellTiter-Glo, read-out: PC9 GI50
measurement.kind: GI50 (nM)

Look over these answered cases.
compound: C[C@@H]1CCCNc2c(cnn2C)-c2cc(cn(C)c2=O)C(=O)Nc2nc3ccc(N4CCN(C)CC4)cc3n2C1
GI50 [nM]: 194

compound: Cn1ncc2c1OCCN1CC3(CCCC1C3)n1c(nc3ccc(N4CCOCC4)cc31)NC(=O)c1cc-2c(=O)n(C)c1 (stereo not drawn)
GI50 [nM]: 211

1: CCN1CCOc2c(cnn2C)-c2cc(cn(C)c2=O)C(=O)Nc2nc3ccccc3n2C(C)(C)C1
2: CCC1CCCOc2c(cnn2C)-c2cc(cn(C)c2=O)C(=O)Nc2nc3ccc(N4CCN(C)CC4)cc3n2C1 (single isomer, unassigned) [Example A16A]
3: C[C@@H]1CCCOc2c(cnn2C)-c2cc(cn(C)c2=O)C(=O)Nc2nc3ccc(N4CC(N5CCOCC5)C4)cc3n2C1
4: C[C@@H]1CCCOc2c(cnn2C)-c2cc(cn(C)c2=O)C(=O)Nc2nc3ccc(N4CCNCC4)c(Cl)c3n2C1
5: CC(C)N1CCN(c2ccc3nc4n(c3c2)C[C@H](C)CCCOc2c(cnn2C)-c2cc(cn(C)c2=O)C(=O)N4)CC1
Task: Sort entries by GI50 from minimum to maximum value. Write the labels, ordered according to the request.
Output: 5, 3, 2, 4, 1
